Experiment: Plasma pharmacokinetics in children and adolescents, with UGT1A1 phenotype
Assay type: in vivo, human
Measurement Context: human, plasma, oral, 80 mg/m^2, Alisertib Cmin Median (range), day 4; I/E, I, P; Grade ≥ 2: Yes (n=8)
Readout Name: concentration at 4 day (nM)
Only the number, expressed in nM, is required.

Documented concentration at 4 day of COc1cc(Nc2ncc3c(n2)-c2ccc(Cl)cc2C(c2c(F)cccc2OC)=NC3)ccc1C(=O)O [alisertib, Alisertib] : 1800

* * *

Experiment: Plasma pharmacokinetics in children and adolescents, with UGT1A1 phenotype
Assay type: in vivo, human
Measurement Context: human, plasma, oral, 80 mg/m^2, Alisertib Cmin Median (range), day 4; I/E, I, P; Grade ≥ 2; No (n=8)
Readout Name: concentration at 4 day
I'd appreciate it if you wrote the number followed by its unit.

Documented concentration at 4 day of `COc1cc(Nc2ncc3c(n2)-c2ccc(Cl)cc2C(c2c(F)cccc2OC)=NC3)ccc1C(=O)O` : 2.22 µM

* * *

Experiment: Plasma pharmacokinetics in children and adolescents, with UGT1A1 phenotype
Format: in vivo, human
Measurement Context: human, plasma, oral, 80 mg/m^2, Median Cmin on day 7, cycle 1
Readout Name: concentration at 7 day (nM)
Only the number, expressed in nM, is required.

Documented concentration at 7 day of `COc1cc(Nc2ncc3c(n2)-c2ccc(Cl)cc2C(c2c(F)cccc2OC)=NC3)ccc1C(=O)O` : 900
